Source: PubChem BioAssay (NCI)

- System: NCI-H522 lung
- ASSAY_INFO: NCI tumour cell line growth inhibition, 48 h; in the data active = GI50 below about 0.43 µM; inactive = the rest
Outcome codes: active, inactive

[[record]]
molecule = "C=C(C[C@](O)(C(=O)/C=C/c1ccc(Cl)cc1)C(=O)OC)c1ccccc1"
system_name = "NCI-H522 lung"
label = "inactive"

[[record]]
molecule = "Cc1cc(-c2cnn3c(NCC4CC(C)(O)C4)cc(Oc4cccnc4)nc23)ccc1C(=O)NC1CC1 (configuration not stated)"
system_name = "NCI-H522 lung"
label = "inactive"

[[record]]
molecule = "CC1(C)OC2=C(CC1Br)C(=O)C(=O)c1ccccc12 (configuration not stated)"
system_name = "NCI-H522 lung"
label = "inactive"

[[record]]
molecule = "CCN(CC)CCCC(C)Nc1c2ccc(Cl)cc2nc2ccc(O)cc12 (configuration not stated)"
system_name = "NCI-H522 lung"
label = "inactive"

[[record]]
molecule = "Nc1nc2c(nnn2C2CC(O)C(CO)O2)c(=O)[nH]1 (configuration not stated)"
system_name = "NCI-H522 lung"
label = "inactive"

[[record]]
molecule = "Cc1ccc(-c2nc3nc(-c4ccccc4)nc(N4CCCNCC4)c3o2)cc1"
system_name = "NCI-H522 lung"
label = "inactive"

[[record]]
molecule = "C[N+]1=C(/C=C/c2ccc(O)c3ncccc23)C(C)(C)c2ccccc21"
system_name = "NCI-H522 lung"
label = "inactive"

[[record]]
molecule = "O=c1cc(-c2ccccc2)oc2cc(OC/C(=N/O)c3ccccc3)ccc12"
system_name = "NCI-H522 lung"
label = "inactive"

[[record]]
molecule = "Nc1nccc(-c2c(-c3ccc(F)cc3)ncn2C2CCC(O)CC2)n1 (configuration not stated)"
system_name = "NCI-H522 lung"
label = "inactive"

[[record]]
molecule = "CCC[CH2][Sn]1([CH2]CCC)[O]C(=O)CN=Cc2c(ccc3ccccc23)[O]1"
system_name = "NCI-H522 lung"
label = "active"

[[record]]
molecule = "COc1cc2ncn(-c3cc(OCc4cccs4)c(C(N)=O)s3)c2cc1OC"
system_name = "NCI-H522 lung"
label = "inactive"

[[record]]
molecule = "COc1ccc(C(=O)C#Cc2cnc(OC)nc2OC)cc1"
system_name = "NCI-H522 lung"
label = "inactive"

